- assayedTarget: T1, full-length human GIPR (GenBank NM_000164) with an N-terminal FLAG tag on HEK-293T cells (human), P48546
- T1 chain: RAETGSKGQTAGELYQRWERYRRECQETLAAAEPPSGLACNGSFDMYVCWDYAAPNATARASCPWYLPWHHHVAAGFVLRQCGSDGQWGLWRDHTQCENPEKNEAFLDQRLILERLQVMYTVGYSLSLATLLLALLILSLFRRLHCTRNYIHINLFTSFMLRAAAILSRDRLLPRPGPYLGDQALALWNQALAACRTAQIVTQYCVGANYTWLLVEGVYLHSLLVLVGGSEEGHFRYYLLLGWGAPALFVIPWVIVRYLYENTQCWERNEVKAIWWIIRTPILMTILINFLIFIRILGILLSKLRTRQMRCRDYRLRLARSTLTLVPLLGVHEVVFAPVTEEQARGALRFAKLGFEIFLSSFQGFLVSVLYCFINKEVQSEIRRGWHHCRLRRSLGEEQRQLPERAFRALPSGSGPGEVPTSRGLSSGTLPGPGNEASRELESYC
- experimentDescription: cell-based or functional assay
Numbered stars: 1 amine (or outer) side, 2 acyl side, 3 side chain; on linkers, the order of the positions; unused ones are H or OH. Square brackets hold non-standard residues; d marks the D form. Primed or numbered codes have the meaning given here. Side chains are listed from the residue outwards. Ends that are not written are not given here. * marks the point of attachment. C20 diacid = O=C(O)CCCCCCCCCCCCCCCCCCC(=O)*; C16 diacid = O=C(O)CCCCCCCCCCCCCCC(=O)*; γGlu = O=C(O)[C@H](CCC(=O)[*:2])N[*:1]; Iva = CC[C@](C)(N)C(=O)O; PEG3′ = not defined here; Aib = CC(C)(N)C(=O)O

binder	GIP EC50(pM)
Y[Aib]EGTFISDYSIALDR[Aib]HQ[Aib]NFVNW[Iva]LAQRK([PEG3′-PEG3′-γGlu-Ida])SSGAPPPS (ends and bridges not checked) [Compound No. 486]	0.7
Y[Aib]EGTFISDYSIALDR[Aib]HQ[Aib]NFVNW[Iva]LAQRK([PEG3′-γGlu-C20 diacid])SSGAPPPS (ends and bridges not checked) [Compound No. 511]	1.61
Y[Aib]EGTFISDYSIALDR[Aib]HQ[Aib]NFVNW[Iva]LAQRPSSGK([PEG3′-γGlu-C20 diacid])PPPS (ends and bridges not checked) [Compound No. 523]	2.98
Y[Aib]EGTFISDYSIALDR[Aib]HQ[Aib]NFVNW[Iva]LAQRPK([Gly-Gly-Gly-Gly-Gly-γGlu-C16 diacid])SGAPPPS (ends and bridges not checked) [Compound No. 441]	0.33
